Where do the numbers come from? From patent US20150197558A1.

Listing of recorded OD by entry.
- MEASURED_ON: T1, IHF from Klebsiella pneumoniae (Klebsiella pneumoniae, UniProt A6TAI1 1-99)
- T1 construct: also called IHF (Kp); K. pneumoniae
- T1 sequence: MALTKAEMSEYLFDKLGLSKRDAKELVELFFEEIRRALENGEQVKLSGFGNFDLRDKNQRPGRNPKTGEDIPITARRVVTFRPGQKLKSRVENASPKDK
- ASSAY_NAME: ELISA

# BINDER, DISPLAY_UNIT, OD
records = [
    ("TRL1087 (antibody, V domains shown) VH: QVQLLESGPGLVRPSDTLSLTCTFSADLSTNAYWTWIRQPPGKGLEWIGYMSHSGGRDYNPSFNRRVTISVDTSKNQVFLRLTSVTSADTAVYFCVREVGSYYDYWGQGILVTVSS VL: DIEMTQSPSSLSASVGDRITITCRASQGISTWLAWYQQKPGKAPKSLIFSTSSLHSGVPSKFSGSGSGTDFTLTITNLQPEDFATYYCQQKWETPYSFGQGTKLDMIR", "OD", 0.06),
    ("TRL1230 (antibody, V domains shown) VH: QVQLVQSGGGLVKPGGSLRLSCGASGFNLSSYSMNWVRQAPGKGLEWVSSISSRSSYIYYADSVQGRFTISRDNAKNSLYLQMNSLRAEDTAIYYCARVSPSTYYYYGMDVWGQGTTVTVSS VL: DIVLTQPSSVSVSPGQTARITCSGDELPKQYAYWYQQKPGQAPVLVIYKDNERPSGIPERFSGSSSGTTVTLTISGVQAEDEADYYCQSADSSGTYVVFGGGTKLTVL", "OD", 0.07),
    ("TRL1218 (antibody, V domains shown) VH: QVQLLESGADMVQPGRSLRLSCAASGFNFRTYAMHWVRQAPGKGLEWVAVMSHDGYTKYYSDSVRGQFTISRDNSKNTLYLQMNNLRPDDTAIYYCARGLTGLSVGFDYWGQGTLVTVSS VL: DIVLTQSASVSGSPGQSITISCTGTSSDVGGYNYVSWYQQHPGKAPKLMIYDVTTRPSGVSDRFSGSKSGNTASLTISGLQAEDEADYYCSSYSSGSTPALFGGGTQLTVL", "OD", 0.06),
    ("TRL1232 (antibody, V domains shown) VH: QVQLVESGAEVKKPGALVKVSCKASGYTFSGYYMHWVRQAPGQGLEWMGWINPKSGGTKYAQKFQGRVTMTRDTSISTAYMELSRLRSDDTAVYFCARGGPSNLERFLERLQPRYSYDDKYAMDVWGQGTTVTVSS VL: DIVMTQSPGTLSLSPGARATLSCRASQSVSSIYLAWYQQKPGQAPRLLIFGASSRATGIPDRFSGSGSGTDFTLTISRLEPEDFAVYYCQQYGSSPYTFGQGTKLEIKR", "OD", 0.1),
]
